B1: CPEB3 Ribozyme (parent)
chain: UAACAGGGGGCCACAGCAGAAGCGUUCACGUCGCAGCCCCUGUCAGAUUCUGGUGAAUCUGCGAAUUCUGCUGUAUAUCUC

- Variants of: B1
- PROCEDURE_DETAILS: self-cleavage, relative activity (ratio to wild type); higher = more cleavage; in vitro, sequencing
Quick reference for self-cleavage among some variants
Reply with the value as a number alone.

Example entries begin here.
VARIANT_SPEC: A28U G61A
DATA_VALUE: 0.45
//
VARIANT_SPEC: U49C U78C
DATA_VALUE: 0.42
//
VARIANT_SPEC: U1C U78G
DATA_VALUE: 0.94

# get_value(readout='self-cleavage', item= A18U G19C ) 0.23

Likewise for A5G G7C ? 0.5

Likewise for U58C G63C ? 0.54
